Data provenance is paper PMC10786891.

The binders listed here are annotated with their Kd.
Molecular target: T1, EsCas13d, nuclease-dead (Eubacterium siraeum, UniProt B0MS50, R295A;H300A;R849A;H854A)
T1 sequence: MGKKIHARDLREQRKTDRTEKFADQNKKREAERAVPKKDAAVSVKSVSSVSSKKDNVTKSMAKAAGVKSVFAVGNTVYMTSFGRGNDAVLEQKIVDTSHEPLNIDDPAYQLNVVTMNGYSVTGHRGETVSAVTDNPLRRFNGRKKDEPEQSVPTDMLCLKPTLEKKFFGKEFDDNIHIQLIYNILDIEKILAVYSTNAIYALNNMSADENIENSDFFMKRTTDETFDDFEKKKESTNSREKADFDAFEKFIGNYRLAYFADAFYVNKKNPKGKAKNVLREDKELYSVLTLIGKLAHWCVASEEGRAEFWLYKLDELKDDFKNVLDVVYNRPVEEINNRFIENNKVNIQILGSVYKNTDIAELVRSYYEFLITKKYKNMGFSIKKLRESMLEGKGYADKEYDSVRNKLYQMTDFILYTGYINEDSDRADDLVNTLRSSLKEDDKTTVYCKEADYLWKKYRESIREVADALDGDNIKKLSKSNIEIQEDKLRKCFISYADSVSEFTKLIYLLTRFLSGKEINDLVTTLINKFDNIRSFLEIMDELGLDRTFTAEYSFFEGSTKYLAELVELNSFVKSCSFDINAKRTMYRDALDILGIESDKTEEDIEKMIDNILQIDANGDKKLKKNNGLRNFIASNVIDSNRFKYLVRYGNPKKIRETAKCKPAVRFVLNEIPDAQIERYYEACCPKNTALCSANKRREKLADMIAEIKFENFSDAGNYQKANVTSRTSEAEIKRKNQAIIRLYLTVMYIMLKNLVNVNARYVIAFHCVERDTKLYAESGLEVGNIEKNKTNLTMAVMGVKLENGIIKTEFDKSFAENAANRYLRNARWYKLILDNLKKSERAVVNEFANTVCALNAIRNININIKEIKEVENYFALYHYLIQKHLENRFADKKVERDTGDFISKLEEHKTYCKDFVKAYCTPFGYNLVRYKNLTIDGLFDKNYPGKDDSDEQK
Assay: crRNA (strand 1, pre-loaded); Mg2+; 40 mM Tris-HCl pH 7.5, 150 mM NaCl, 6 mM MgCl2, 1 mM DTT, 0.1% Tween-20, 0.2 mg/ml BSA; 25 C; 10 min per concentration, then washed
Conditions: tags: His6-TwinStrep-SUMO cleaved; N-terminal SNAP kept (SNAP-Surface 488); label: 3' end held by stalled T7 RNA polymerase
Supply the numeric figure in nM, leaving out any unit text.

target 1 A1G,G13U (mixed) RNA 1: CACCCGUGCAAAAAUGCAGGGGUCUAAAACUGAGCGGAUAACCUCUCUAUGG RNA 2: GGGAAUGGAUCCACAUCUACGAAUUCGUACCAUAGAGAUGUUAUCCGCUCGCCGAGAUCGGAAGAGCACACGU : 41

As a next step, examine the binder that follows.
Task: Which Kd reading was recorded for the binder target 1 insU 3' of 15,insA 3' of 11 (mixed) RNA 1: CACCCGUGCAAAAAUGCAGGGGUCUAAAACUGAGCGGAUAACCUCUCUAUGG RNA 2: GGGAAUGGAUCCACAUCUACGAAUUCGUACCAUAGAGUAGGUAUAUCCGCUCACCGAGAUCGGAAGAGCACACGU ?
Output: 27.8
